Recorded values, source PubChem BioAssay.

- run_description: E. coli DRC41 culture turbidity changes, primary screen, E. coli filamentation inducer project, strain DRC41, OD650, 48 h (AID 1152);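 note: E. coli MC1000 strain DRC41 lacking acrAB efflux pump and sulA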
- condition_info: E. coli DRC41 (acrAB sulA), higher = more signal, called active from +8 up or from −8 down
Calls of active or inactive are those of the source.
The entries below are paired with their reported z-score.

[
  {
    "molecule": "O=C(NN=C1C[C@@H](O)[C@@H](O)[C@@H]2[C@@H]3C(=O)N(Cc4ccc5c(c4)OCO5)C(=O)[C@@H]3CC[C@H]12)OCc1ccccc1",
    "z-score": "1.2 (inactive)"
  },
  {
    "molecule": "Cc1cc2c(nc1C)CCCN2CC(C)ON=C[C@@H](C)[C@H](OCc1ccccc1)C(C)C (stereo partly drawn)",
    "z-score": "-0.434 (inactive)"
  },
  {
    "molecule": "CO[C@@H]1C=CCC(=O)N2CCC[C@H]2C(=O)OC[C@H](C)C(=O)OC[C@H]1C",
    "z-score": "0.813 (inactive)"
  }
]

----------
Entries and their measured composite z-score follow.
- run_description: COS7 lysate on small-molecule microarray, probe aHis, 635 nm (AID 1123);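 note: z-score combines 667nm fluorescence intensity with signal-to-noise per printed compound spot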
- condition_info: COS7 cell lysate, fluorescence, higher = more signal

[
  {
    "molecule": "CC(C)CCN1CCc2nc(-c3ccccc3)c3c(c2C1)CO[C@@H](C)C3",
    "composite z-score": 0.463
  },
  {
    "molecule": "CCOC(=O)[C@H](Cc1ccccc1)NC(=O)CCC1CC(OC(=O)NCc2cccc3ccccc23)CC2(CCCC(COC(=O)NCCCN3CCCC3=O)O2)O1 (stereo partly drawn)",
    "composite z-score": 1.14
  },
  {
    "molecule": "CC(C)=NOC[C@@H](O)COCc1ccco1",
    "composite z-score": -0.115
  },
  {
    "molecule": "CC(=O)OC[C@H]1O[C@H](C#CC(C)(C)C)C=C[C@@H]1OC(C)=O",
    "composite z-score": 1.6
  },
  {
    "molecule": "C=CCN(CCCC)C(=O)C1N(c2ccc(CCO)cc2)C(=O)C2C(C(=O)O)C3C=CC21O3 (stereo not drawn)",
    "composite z-score": 0.253
  },
  {
    "molecule": "CC(C)CON=C1C[C@@H](O)[C@@H](O)[C@@H]2[C@@H]3C(=O)N(c4cccc(Oc5ccccc5)c4)C(=O)[C@@H]3CC[C@H]12",
    "composite z-score": 0.328
  },
  {
    "molecule": "CCOC(=O)NN=C1C[C@@H](O)[C@@H](O)[C@@H]2[C@@H]3C(=O)N(Cc4ccccc4)C(=O)[C@@H]3CC[C@@H]12",
    "composite z-score": -0.381
  },
  {
    "molecule": "Cc1ccc(S(=O)(=O)N[C@H]2COC(=O)[C@@H](C)COC(=O)[C@H](C)NC(=O)CC=C[C@H]2C)cc1",
    "composite z-score": -0.49
  }
]

----------
Entries annotated with measured z-score
- run_description: basal S. cerevisiae growth modulation, no modifier, primary screen, OD600, strain BY4716, 24 h, basal condition (AID 1173)
- condition_info: OD600, 24 h, higher = more signal, called active from +8 up or from −8 down

[
  {
    "molecule": "O=C(NN=C1C[C@@H](O)[C@@H](O)[C@@H]2[C@@H]3C(=O)N(Cc4ccc5c(c4)OCO5)C(=O)[C@@H]3CC[C@H]12)OCc1ccccc1",
    "z-score": 0.0375
  },
  {
    "molecule": "CC(C)CON=C1C[C@@H](O)[C@@H](O)[C@@H]2[C@@H]3C(=O)N(c4cccc(Oc5ccccc5)c4)C(=O)[C@@H]3CC[C@H]12",
    "z-score": 0.121
  },
  {
    "molecule": "CC(C)CCN1CCc2nc(-c3ccccc3)c3c(c2C1)CO[C@@H](C)C3",
    "z-score": -1.08
  },
  {
    "molecule": "CCOC(=O)[C@H](CC(C)C)NC(=O)CCC1CC(OC(=O)NCc2cccc3ccccc23)CC2(CCCC(COC(=O)NCc3ccccc3)O2)O1 (stereo partly drawn)",
    "z-score": -1.76
  },
  {
    "molecule": "CCCNC(=O)OC[C@H]1O[C@H](CCON=C(C)CCN2CCc3nc(-c4ccccc4)c(-c4ccccc4)cc3C2)C=C[C@@H]1Oc1ccc(OC)cc1",
    "z-score": -0.238
  },
  {
    "molecule": "CCN1C(=O)[C@H]2[C@H]3[C@H](O)[C@H](O)CC(=NOC)[C@@H]3CC[C@H]2C1=O",
    "z-score": -1.88
  },
  {
    "molecule": "CC(C)=NOC[C@@H](O)COCc1ccco1",
    "z-score": 0.14
  },
  {
    "molecule": "CC(C)=NO[C@@H](C)c1cc(-c2c(C)cc(C)cc2C)no1",
    "z-score": -2.48
  }
]

----------
- run_description: adipocyte viability effects, profiling panel, cell-based, 3T3-L1 adipocytes, calcein-AM fluorescence, 48 h, basal (AID 1163); note: test concentration not given here
- condition_info: 3T3-L1 adipocytes viability, higher = more signal
Rule for this label: Fulfilled means z-score is less than 0.2; Not fulfilled means z-score is at least 0.2.

[
  {
    "molecule_smiles": "CC(C)CCN1CCc2nc(-c3ccccc3)c3c(c2C1)CO[C@@H](C)C3",
    "assigned_category": "Fulfilled"
  },
  {
    "molecule_smiles": "CC(C)CON=C1C[C@@H](O)[C@@H](O)[C@@H]2[C@@H]3C(=O)N(c4cccc(Oc5ccccc5)c4)C(=O)[C@@H]3CC[C@H]12",
    "assigned_category": "Not fulfilled"
  },
  {
    "molecule_smiles": "CC(C)C(=O)N[C@@H]1CCCN1C(=O)C=Cc1ccccc1",
    "assigned_category": "Not fulfilled"
  },
  {
    "molecule_smiles": "CC(C)=NOCc1ccc(-c2cn([C@@H]3COC[C@H]3O)nn2)cc1",
    "assigned_category": "Not fulfilled"
  },
  {
    "molecule_smiles": "C[C@@H]1CC[C@@H](C(=O)O)N[C@H]1c1ccc(-c2ccco2)cc1",
    "assigned_category": "Fulfilled"
  },
  {
    "molecule_smiles": "CO[C@H]1COC(=O)CC=C[C@@H](C)COC(=O)[C@@H](OCc2ccccc2)C=C[C@@H]1C",
    "assigned_category": "Fulfilled"
  },
  {
    "molecule_smiles": "COc1ccc(COC(=O)NN=C2C[C@@H](O)[C@@H](O)[C@@H]3[C@@H]4C(=O)N(C(C)(C)C)C(=O)[C@@H]4CC[C@H]23)cc1",
    "assigned_category": "Not fulfilled"
  }
]

----------
- run_description: P. aeruginosa biofilm formation inhibitors, primary screen, strain PAO1, LB-PBS medium, absorbance 600 nm (AID 1176); note: test concentration not given here
- condition_info: P. aeruginosa PAO1 growth/biofilm, A600, 12 h; higher = more signal
Label scheme for z-score: lower than -0.07 is Not fulfilled, -0.07 and above is Fulfilled.

[
  {
    "compound": "C#CCN1C(/C=C/c2ccccc2)C(=O)OC[C@H]1c1ccccc1 (stereo not given in full)",
    "assigned_category": "Not fulfilled"
  },
  {
    "compound": "CC(C)=NOC[C@@H](O)COCc1ccco1",
    "assigned_category": "Not fulfilled"
  },
  {
    "compound": "C=CCN(C(=O)C1N(C(C)(C)CO)C(=O)C2C(C(=O)O)C3C=CC21O3)c1ccc(OC)cc1 (stereo not given)",
    "assigned_category": "Not fulfilled"
  },
  {
    "compound": "CCCNC(=O)OC[C@H]1O[C@H](CCON=C(C)CCC(=O)OC[C@H]2O[C@H](C#Cc3ccccc3)C=C[C@@H]2Oc2ccc(C)cc2)C=C[C@@H]1Oc1ccc(OC)cc1",
    "assigned_category": "Fulfilled"
  },
  {
    "compound": "CCOC(=O)C[C@H]1[C@H](OC(=O)c2ccccc2-c2ccccc2)[C@@H](NC(=O)Cc2ccc(OC)cc2)c2cc(OCCCO)ccc2N1C(=O)Cc1ccc(OC)cc1",
    "assigned_category": "Fulfilled"
  }
]

----------
Reported composite z-score values for a set of compounds
- Test system: Fibrinogen (Alexa647-labelled)
- run_description: fibrinogen binders on compound microarrays, profiling panel, artefact control for SMM control-protein annotation, biochemical, small-molecule microarray, 635/667 nm fluorescence (AID 1131);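 note: z-score merges 667 nm fluorescence with per-spot signal-to-noise over triplicate slides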
- condition_info: fibrinogen-A647 binding fluorescence, higher = more signal

[
  {
    "compound": "C#CCCCON=C1C[C@@H](O)[C@@H](O)[C@@H]2[C@@H]3C(=O)N(C4CCCCC4)C(=O)[C@@H]3CC[C@H]12",
    "composite z-score": 0.962
  },
  {
    "compound": "COC(=O)[C@H](C)NC(=O)CCC1CC(OC(=O)NCCc2ccc(F)cc2)CC2(CCCC(COC(=O)NCCCN3CCCC3=O)O2)O1 (stereo partly specified)",
    "composite z-score": 0.872
  },
  {
    "compound": "CCOC(=O)NN=C1C[C@@H](O)[C@@H](O)[C@@H]2[C@@H]3C(=O)N(Cc4ccc5c(c4)OCO5)C(=O)[C@@H]3CC[C@@H]12",
    "composite z-score": 0.669
  },
  {
    "compound": "C[C@@H]1CC[C@@H](C(=O)O)N[C@H]1c1ccc(-c2ccco2)cc1",
    "composite z-score": 1.02
  },
  {
    "compound": "CCCNC(=O)OC[C@H]1O[C@H](CCON=C(C)CCC(=O)OC[C@H]2O[C@H](C#Cc3ccccc3)C=C[C@@H]2Oc2ccc(C)cc2)C=C[C@@H]1Oc1ccc(OC)cc1",
    "composite z-score": -0.185
  },
  {
    "compound": "COc1ccc(COC(=O)NN=C2C[C@@H](O)[C@@H](O)[C@@H]3[C@@H]4C(=O)N(C(C)(C)C)C(=O)[C@@H]4CC[C@H]23)cc1",
    "composite z-score": 0.816
  },
  {
    "compound": "CO[C@@H]1C=CCC(=O)N2CCC[C@H]2C(=O)OC[C@H](C)C(=O)OC[C@H]1C",
    "composite z-score": -1.04
  },
  {
    "compound": "CCN1C(=O)[C@H]2[C@H]3[C@H](O)[C@H](O)CC(=NNC(=O)OCc4ccc(OC)cc4)[C@H]3CC[C@H]2C1=O",
    "composite z-score": 0.171
  },
  {
    "compound": "CC(C)=NO[C@@H](C)c1cc(-c2c(C)cc(C)cc2C)no1",
    "composite z-score": -0.268
  },
  {
    "compound": "CC(C)C(=O)N[C@@H]1CCCN1C(=O)C=Cc1ccccc1",
    "composite z-score": 0.494
  },
  {
    "compound": "CC(C)CON=C1C[C@@H](O)[C@@H](O)[C@@H]2[C@@H]3C(=O)N(c4cccc(Oc5ccccc5)c4)C(=O)[C@@H]3CC[C@H]12",
    "composite z-score": 0.202
  },
  {
    "compound": "C[C@@H](c1ccccc1)N1C(=O)[C@H]2[C@H]3[C@H](O)[C@H](O)CC(=O)[C@@H]3CC[C@H]2C1=O",
    "composite z-score": 0.212
  },
  {
    "compound": "CC(C)=CCCC(C)=CCON=C1C[C@@H](O)[C@@H](O)[C@@H]2[C@@H]3C(=O)N([C@@H](C)c4ccccc4)C(=O)[C@@H]3CC[C@H]12",
    "composite z-score": 0.558
  },
  {
    "compound": "CO[C@@H]1COC(=O)CC=C[C@H](C)COC(=O)[C@H](C)NC(=O)CC=C[C@H]1C",
    "composite z-score": -0.607
  },
  {
    "compound": "Cc1ccc(S(=O)(=O)N[C@H]2COC(=O)[C@@H](C)COC(=O)[C@H](C)NC(=O)CC=C[C@H]2C)cc1",
    "composite z-score": -0.343
  },
  {
    "compound": "CCOC(=O)c1ccc(NC(=O)O[C@H]2[C@H](OC(=O)Nc3ccccc3)[C@@H](OC(=O)Nc3ccccc3)[C@@H](OC)O[C@@H]2CO)cc1",
    "composite z-score": 1
  }
]
